- testTarget: binding of ZIKV EDIII to EDIII-specific neutralizing mAbs (Zika virus, UniProt A0A024B7W1)
- Construct: EDIII (residues 298-409 in E protein containing a C-terminal human Fc tag); human Fc (C)
- Sequence (A0A024B7W1 588-699): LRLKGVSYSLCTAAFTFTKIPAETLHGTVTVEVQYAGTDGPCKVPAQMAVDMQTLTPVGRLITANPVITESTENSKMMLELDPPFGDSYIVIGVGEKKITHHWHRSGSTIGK
- assayProtocol: ELISA competition assay, EDIII-mAb binding
- runConditions: IC50 blocking EDIII binding to mAb SMZAb5, ELISA competition, mAb 0.5 μg/mL
readoutName: IC50 (µM)
Number only, in µM; omit the unit.

### Prompt Any idea what IC50 was measured for Cc1cc2c(C(C)C)c(O)c(O)c(/C=N/n3c(=O)[nH][nH]c3=O)c2c(O)c1-c1c(C)cc2c(C(C)C)c(O)c(O)c(/C=N/n3c(=O)[nH][nH]c3=O)c2c1O ?
### Response 5.72
